# Test system: TK-10 renal
# EXPERIMENT: NCI tumour cell line growth inhibition, 48 h
The following compounds are shown together with reported TGI values.
QUANTITY_KIND: TGI

[[record]]
compound = "Cn1cc(-c2nonc2-c2c[nH]c3ccccc23)c2ccccc21"
measured_on = "TK-10 renal"
quantity_kind = "TGI"
endpoint_value = "24.4 µM"

[[record]]
compound = "Nc1nc(Cl)cc(NCC2(O)CC(CO)C2)n1 (configuration not stated)"
measured_on = "TK-10 renal"
quantity_kind = "TGI"
endpoint_value = "> 100 µM"

[[record]]
compound = "COC(=O)c1cn(CCCC(=O)O)nn1"
measured_on = "TK-10 renal"
quantity_kind = "TGI"
endpoint_value = "> 100 µM"

[[record]]
compound = "Cc1ccc(C(=O)O/N=C2/CCCC/C2=C\\c2ccccc2)cc1"
measured_on = "TK-10 renal"
quantity_kind = "TGI"
endpoint_value = "> 100 µM"

[[record]]
compound = "O=C1OC(=O)c2c1c(-c1ccccc1)cn2-c1ccc(Cl)cc1"
measured_on = "TK-10 renal"
quantity_kind = "TGI"
endpoint_value = "> 100 µM"

[[record]]
compound = "COc1cc2c(/C=N\\N=C(N)N)c(Cl)[nH]c2cc1C"
measured_on = "TK-10 renal"
quantity_kind = "TGI"
endpoint_value = "29.5 µM"

[[record]]
compound = "O=C(c1ccccc1)c1c(NCC(O)CN2CCCC2)n(Cc2ccccc2)c(=O)n(Cc2ccccc2)c1=O (configuration not stated)"
measured_on = "TK-10 renal"
quantity_kind = "TGI"
endpoint_value = "41.6 µM"

[[record]]
compound = "Cc1c2cnccc2c(C)c2c1c1cc(C3OCCCO3)ccc1n2C"
measured_on = "TK-10 renal"
quantity_kind = "TGI"
endpoint_value = "4.14 µM"

[[record]]
compound = "CCSc1nnc2c(-c3ccccc3)n[nH]c2n1"
measured_on = "TK-10 renal"
quantity_kind = "TGI"
endpoint_value = "> 100 µM"

[[record]]
compound = "CC(C)(C)OC(=O)CN1CCNCCNCC1"
measured_on = "TK-10 renal"
quantity_kind = "TGI"
endpoint_value = "> 100 µM"

[[record]]
compound = "C1=C\\SS/C=C\\SS/C=C\\SS/C=C\\SS/1"
measured_on = "TK-10 renal"
quantity_kind = "TGI"
endpoint_value = "> 100 µM"

[[record]]
compound = "O=C(Nc1c(O)[nH]c(=S)[nH]c1=O)c1ccccn1"
measured_on = "TK-10 renal"
quantity_kind = "TGI"
endpoint_value = "> 100 µM"

